Hey, just so you know, these numbers are from patent US20250163052A1.

Each item that follows carries a reported inhibition at 1 µM.
target: h-cGAS (Homo sapiens, UniProt Q8N884); experiment: Cell-free human cGAS enzyme inhibition assay (ATP depletion, Kinase-Glo Max); type: biochemical; conditions: 3 h; read-out: h-cGAS, conc. 1 μM
Sequence (Q8N884 whole entry): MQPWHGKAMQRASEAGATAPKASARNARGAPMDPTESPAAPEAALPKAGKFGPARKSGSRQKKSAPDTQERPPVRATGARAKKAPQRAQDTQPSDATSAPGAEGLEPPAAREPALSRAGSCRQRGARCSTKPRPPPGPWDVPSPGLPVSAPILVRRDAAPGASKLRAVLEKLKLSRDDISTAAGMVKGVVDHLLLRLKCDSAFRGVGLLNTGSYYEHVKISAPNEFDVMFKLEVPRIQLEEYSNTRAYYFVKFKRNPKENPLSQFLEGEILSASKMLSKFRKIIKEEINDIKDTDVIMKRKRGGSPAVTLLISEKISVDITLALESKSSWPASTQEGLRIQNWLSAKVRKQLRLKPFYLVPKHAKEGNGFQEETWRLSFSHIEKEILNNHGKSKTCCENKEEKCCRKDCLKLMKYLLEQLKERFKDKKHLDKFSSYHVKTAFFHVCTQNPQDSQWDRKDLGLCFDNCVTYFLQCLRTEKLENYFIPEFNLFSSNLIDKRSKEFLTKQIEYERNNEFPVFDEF

Request: inhibition at 1 µM, test system h-cGAS (Homo sapiens, UniProt Q8N884), entry Cn1c2c(c3c(-c4cncnc4)cc(Cl)c(Cl)c31)CN(C(=O)CN)CC2 [Compound 8]
50 to 74%

----------
# key: entry, value: Remaining (T = 60 min)
experiment: Metabolic stability in human liver microsomes; conditions: human liver microsomes; 60 min with NADPH
// return numeric value only (unit: %, not printed)

* Cn1cc(-c2cc(Cl)c(Cl)c3c2c2c(n3C)CCN(C(=O)CN)C2)cn1 | 88.2
* C[C@]12CC[C@H]3[C@@H](CCC4=CC(=O)CC[C@@]43C)[C@@H]1CC[C@@H]2O [Testosterone, reference compound] | 4.0
* Cn1cc(-c2cc(Cl)c(Cl)c3oc4c(c23)CN(C(=O)CN)CC4)cn1 | 87.6
* O=C(O)Cc1ccccc1Nc1c(Cl)cccc1Cl [Diclofenac, reference compound] | 0.0
* Cn1cc(-c2cc(Cl)c(Cl)c3sc4c(c23)CN(C(=O)CN)CC4)cn1 | 85.4
* Cn1cc(-c2cc(Cl)c(Cl)c3sc4c(c23)CCN(C(=O)CN)C4)cn1 | 93.6

Query molecule follows.
Remaining (T = 60 min) lookup needed for Cn1c2c(c3ccc(Cl)c(F)c31)CN(C(=O)CO)CC2 [TDI-6570, reference compound] , thanks.
11.3

----------
This listing pairs compounds with measured inhibition at 10 µM.
target: h-cGAS (Homo sapiens, UniProt Q8N884); assay: Cell-free human cGAS enzyme inhibition assay (ATP depletion, Kinase-Glo Max); type: biochemical; conditions: 3 h; read-out: h-cGAS, conc. 10 μM

Check out these entries, answers already filled in.
• CNc1ccc(-c2cc(Cl)c(Cl)c3sc4c(c23)CCN(C(=O)CO)C4)cn1 = 0 to 24%
• Cc1ccn(-c2cc(Cl)c(Cl)c3sc4c(c23)CCN(C(=O)CN)C4)n1 = 25 to 49%
• O=C(CO)N1CCc2[nH]c3c(Cl)c(Cl)cc(O)c3c2C1 = 75 to 100%
• NCC(=O)N1CCc2c(sc3c(Cl)c(Cl)cc(-c4ccco4)c23)C1 = 75 to 100%
• Nc1ccc(-c2cc(Cl)c(Cl)c3sc4c(c23)CN(C(=O)[C@H]2CCCN2)CC4)cn1 = 50 to 74%
• Cn1cc(-c2cc(Cl)c(Cl)c3c2c2c(n3C)CCN(C(=O)CNC(=O)OC(C)(C)C)C2)cn1 = 75 to 100%
• Nc1ccc(-c2cc(Cl)c(Cl)c3[nH]c4c(c23)CN(C(=O)C2(N)CC2)CC4)cn1 = 0 to 24%
• Cn1cc(-c2cc(Cl)c(Cl)c3sc4c(c23)CCN(C(=O)CN)C4)cn1 = 25 to 49%
• O=C(CO)N1CCc2c(sc3c(Cl)c(Cl)cc(-c4cncs4)c23)C1 = 0 to 24%
• O=C(CO)N1CCc2sc3c(Cl)c(Cl)cc(-c4cncnc4)c3c2C1 = 50 to 74%

Which inhibition at 10 µM value belongs to Cn1ccc(-c2cc(Cl)c(Cl)c3sc4c(c23)CN(C(=O)CO)CC4)n1 ?
75 to 100%

Quick check: inhibition at 10 µM of Cn1cc(-c2cc(Cl)c(Cl)c3sc4c(c23)CCN(C(=O)CO)C4)cn1 ?
25 to 49%

Item under review: Cn1cc(-c2cc(Cl)c(Cl)c3sc4c(c23)CN(C(=O)CO)CC4)cn1 . Reported inhibition at 10 µM?
50 to 74%

Quick one: inhibition at 10 µM of NCC(=O)N1CCc2c(sc3c(Cl)c(Cl)cc(-c4cncs4)c23)C1 ?
50 to 74%

Fill in: inhibition at 10 µM of Cn1c2c(c3c(-c4ccn[nH]4)cc(Cl)c(Cl)c31)CN(C(=O)C1CCCN1)CC2 (centres unmarked) is ___
0 to 24%

Name the recorded inhibition at 10 µM for Cn1c2c(c3c(Br)cc(Cl)c(Cl)c31)CN(C(=O)CN)CC2 .
75 to 100%

Give its inhibition at 10 µM value. Item: NCC(=O)N1CCc2sc3c(Cl)c(Cl)cc(-c4cncnc4)c3c2C1
50 to 74%

Recorded inhibition at 10 µM of Cn1c2c(c3c(-c4ccc(N)nc4)cc(Cl)c(Cl)c31)CN(C(=O)C1CCCN1C(=O)OC(C)(C)C)CC2 (centres unmarked) , please.
0 to 24%

Please report the recorded inhibition at 10 µM for O=C(CO)N1CCc2c(sc3c(Cl)c(Cl)cc(-c4cncnc4)c23)C1 .
25 to 49%

# input compound: Cc1csc(-c2cc(Cl)c(Cl)c3sc4c(c23)CCN(C(=O)CN)C4)n1 ; wanted: its inhibition at 10 µM
50 to 74%

Looking for the measured inhibition at 10 µM of NCC(=O)N1CCc2c(sc3c(Cl)c(Cl)cc(-c4ccsc4)c23)C1 , can you help?
50 to 74%

Suppose we examine the compound Cn1cc(-c2cc(Cl)c(Cl)c3nc4c(n23)CN(C(=O)CO)CC4)cn1 ; what inhibition at 10 µM value has been reported?
0 to 24%

Consider the compound shown here: O=C(CO)N1CCc2c(sc3c(Cl)c(Cl)cc(-c4ccco4)c23)C1 What is its recorded inhibition at 10 µM?
25 to 49%

Fill blank: measured inhibition at 10 µM of the compound Nc1ccc(-c2cc(Cl)c(Cl)c3oc4c(c23)CN(C(=O)CO)CC4)cn1 is ____.
75 to 100%

For Cn1ccc(-c2cc(Cl)c(Cl)c3c2c2c(n3C)CCN(C(=O)C(C)(C)O)C2)n1 , what is its reported inhibition at 10 µM?
75 to 100%

Give its inhibition at 10 µM value. Item: NCC(=O)N1CCc2c(sc3c(Cl)c(Cl)cc(-c4ccc(N)nc4)c23)C1
50 to 74%

----------
assay: Protein binding in mouse brain homogenates; assay type: in vitro ADME; conditions: brain homogenate, read-out: % BoundBrain (converted)
measure.name: fraction unbound at 6 hr
The answer should be written as a number, with no unit following it.

- Cn1cc(-c2cc(Cl)c(Cl)c3nc4c(n23)CN(C(=O)CO)CC4)cn1: 0.19
- Cn1cc(-c2cc(Cl)c(Cl)c3sc4c(c23)CCN(C(=O)CN)C4)cn1: 0.0706

Now for a further compound.
What value of fraction unbound at 6 hr has been recorded for this entry: CCCc1nc2c(C)cc(-c3nc4ccccc4n3C)cc2n1Cc1ccc(-c2ccccc2C(=O)O)cc1 [Telmisartan, reference compound]
0.0188

----------
As shown below, each of these compounds has a reported AUC(0-t) value.
Test: Pharmacokinetic study, plasma and brain PK parameters after I.P. dosing
Assay type: in vivo, mouse
Conditions: mouse, ip; plasma; 25 mg/Kg I.P.; read-out: AUClast (plasma)
Method: To test pharmacokinetics, TDI-6570 ([…] solution in water containing 0.2% Tween 80) was administered to 8-weeks old CD-1 male mice (n=3 for each time point) intraperitoneally (IP) and both plasma (EDTA-K2) and brain tissues were collected at various time points (0.5, 2, 4, 8 and 24 hours post drug administration). Transcardial perfusion were performed with saline prior to brain collection. Bioanalysis of brain tissue and plasma extracts were performed by LC-MS/MS.
Respond with a number, then the unit of measure.

- Cn1cc(-c2cc(Cl)c(Cl)c3sc4c(c23)CN(C(=O)CO)CC4)cn1: 33500 ng·h/mL

Next compound, AUC(0-t) to be filled in.
Consider the compound O=C(CO)N1CCc2c(sc3c(Cl)c(Cl)cc(-c4cn[nH]c4)c23)C1 and give its measured AUC(0-t).
34200 ng·h/mL

----------
Recorded CLint scaled values for a group of molecules are listed next.
experiment: Metabolic stability in human liver microsomes; conditions: human, liver microsomes

Examples with answers:
• Cn1cc(-c2cc(Cl)c(Cl)c3c2c2c(n3C)CCN(C(=O)CN)C2)cn1 = < 8.6 mL/min/kg
• Cn1cc(-c2cc(Cl)c(Cl)c3sc4c(c23)CN(C(=O)CN)CC4)cn1 = < 8.6 mL/min/kg
• C[C@]12CC[C@H]3[C@@H](CCC4=CC(=O)CC[C@@]43C)[C@@H]1CC[C@@H]2O [Testosterone, reference compound] = 98.2 mL/min/kg
• Cn1cc(-c2cc(Cl)c(Cl)c3oc4c(c23)CN(C(=O)CN)CC4)cn1 = < 8.6 mL/min/kg

Pending molecule:
Can you share its CLint scaled? I mean this molecule: Cn1cc(-c2cc(Cl)c(Cl)c3sc4c(c23)CCN(C(=O)CN)C4)cn1
< 8.6 mL/min/kg

----------
molecular target: m-cGAS (Mus musculus, UniProt Q8C6L5); assay: Cell-free mouse cGAS enzyme inhibition assay (ATP depletion, Kinase-Glo Max); format: biochemical; conditions: 1 h; read-out: m-cGAS, conc. 10 μM
Sequence (Q8C6L5 whole entry): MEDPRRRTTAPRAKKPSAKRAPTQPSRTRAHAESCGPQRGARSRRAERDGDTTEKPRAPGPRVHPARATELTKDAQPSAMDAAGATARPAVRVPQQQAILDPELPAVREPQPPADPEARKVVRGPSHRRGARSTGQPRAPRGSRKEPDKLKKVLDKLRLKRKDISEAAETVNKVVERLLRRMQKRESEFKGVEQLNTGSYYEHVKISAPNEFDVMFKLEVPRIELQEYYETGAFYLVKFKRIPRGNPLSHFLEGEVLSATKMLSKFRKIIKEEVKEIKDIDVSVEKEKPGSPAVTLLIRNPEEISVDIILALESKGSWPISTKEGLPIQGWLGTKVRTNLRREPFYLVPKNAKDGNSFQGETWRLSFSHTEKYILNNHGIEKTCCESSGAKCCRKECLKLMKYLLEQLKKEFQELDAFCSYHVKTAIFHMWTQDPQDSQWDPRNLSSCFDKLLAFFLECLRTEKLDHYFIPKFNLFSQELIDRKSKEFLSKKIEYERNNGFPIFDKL
measure.name: inhibition at 10 µM

- NCC(=O)N1CCc2c(sc3c(Cl)c(Cl)cc(-c4cccs4)c23)C1 [Compound 81]: 50 to 74%
- NCC(=O)N1CCc2nc3c(Cl)c(Cl)cc(-c4cncnc4)n3c2C1 [Compound 100]: 0 to 24%
- NCC(=O)N1CCc2oc3c(Cl)c(Cl)cc(-c4cncnc4)c3c2C1 [Compound 32]: 75 to 100%
- Nc1ccc(-c2cc(Cl)c(Cl)c3oc4c(c23)CN(C(=O)CO)CC4)cn1 [Compound 26]: 25 to 49%

Now consider a different compound.
Fill blank: measured inhibition at 10 µM of the compound NCC(=O)N1CCc2c(sc3c(Cl)c(Cl)cc(-n4cccn4)c23)C1 [Compound 94] is ____.
50 to 74%
